Target Under Test: C. difficile toxin A (Clostridium difficile, UniProt P16154 1-2710)
Sequence (P16154 whole entry): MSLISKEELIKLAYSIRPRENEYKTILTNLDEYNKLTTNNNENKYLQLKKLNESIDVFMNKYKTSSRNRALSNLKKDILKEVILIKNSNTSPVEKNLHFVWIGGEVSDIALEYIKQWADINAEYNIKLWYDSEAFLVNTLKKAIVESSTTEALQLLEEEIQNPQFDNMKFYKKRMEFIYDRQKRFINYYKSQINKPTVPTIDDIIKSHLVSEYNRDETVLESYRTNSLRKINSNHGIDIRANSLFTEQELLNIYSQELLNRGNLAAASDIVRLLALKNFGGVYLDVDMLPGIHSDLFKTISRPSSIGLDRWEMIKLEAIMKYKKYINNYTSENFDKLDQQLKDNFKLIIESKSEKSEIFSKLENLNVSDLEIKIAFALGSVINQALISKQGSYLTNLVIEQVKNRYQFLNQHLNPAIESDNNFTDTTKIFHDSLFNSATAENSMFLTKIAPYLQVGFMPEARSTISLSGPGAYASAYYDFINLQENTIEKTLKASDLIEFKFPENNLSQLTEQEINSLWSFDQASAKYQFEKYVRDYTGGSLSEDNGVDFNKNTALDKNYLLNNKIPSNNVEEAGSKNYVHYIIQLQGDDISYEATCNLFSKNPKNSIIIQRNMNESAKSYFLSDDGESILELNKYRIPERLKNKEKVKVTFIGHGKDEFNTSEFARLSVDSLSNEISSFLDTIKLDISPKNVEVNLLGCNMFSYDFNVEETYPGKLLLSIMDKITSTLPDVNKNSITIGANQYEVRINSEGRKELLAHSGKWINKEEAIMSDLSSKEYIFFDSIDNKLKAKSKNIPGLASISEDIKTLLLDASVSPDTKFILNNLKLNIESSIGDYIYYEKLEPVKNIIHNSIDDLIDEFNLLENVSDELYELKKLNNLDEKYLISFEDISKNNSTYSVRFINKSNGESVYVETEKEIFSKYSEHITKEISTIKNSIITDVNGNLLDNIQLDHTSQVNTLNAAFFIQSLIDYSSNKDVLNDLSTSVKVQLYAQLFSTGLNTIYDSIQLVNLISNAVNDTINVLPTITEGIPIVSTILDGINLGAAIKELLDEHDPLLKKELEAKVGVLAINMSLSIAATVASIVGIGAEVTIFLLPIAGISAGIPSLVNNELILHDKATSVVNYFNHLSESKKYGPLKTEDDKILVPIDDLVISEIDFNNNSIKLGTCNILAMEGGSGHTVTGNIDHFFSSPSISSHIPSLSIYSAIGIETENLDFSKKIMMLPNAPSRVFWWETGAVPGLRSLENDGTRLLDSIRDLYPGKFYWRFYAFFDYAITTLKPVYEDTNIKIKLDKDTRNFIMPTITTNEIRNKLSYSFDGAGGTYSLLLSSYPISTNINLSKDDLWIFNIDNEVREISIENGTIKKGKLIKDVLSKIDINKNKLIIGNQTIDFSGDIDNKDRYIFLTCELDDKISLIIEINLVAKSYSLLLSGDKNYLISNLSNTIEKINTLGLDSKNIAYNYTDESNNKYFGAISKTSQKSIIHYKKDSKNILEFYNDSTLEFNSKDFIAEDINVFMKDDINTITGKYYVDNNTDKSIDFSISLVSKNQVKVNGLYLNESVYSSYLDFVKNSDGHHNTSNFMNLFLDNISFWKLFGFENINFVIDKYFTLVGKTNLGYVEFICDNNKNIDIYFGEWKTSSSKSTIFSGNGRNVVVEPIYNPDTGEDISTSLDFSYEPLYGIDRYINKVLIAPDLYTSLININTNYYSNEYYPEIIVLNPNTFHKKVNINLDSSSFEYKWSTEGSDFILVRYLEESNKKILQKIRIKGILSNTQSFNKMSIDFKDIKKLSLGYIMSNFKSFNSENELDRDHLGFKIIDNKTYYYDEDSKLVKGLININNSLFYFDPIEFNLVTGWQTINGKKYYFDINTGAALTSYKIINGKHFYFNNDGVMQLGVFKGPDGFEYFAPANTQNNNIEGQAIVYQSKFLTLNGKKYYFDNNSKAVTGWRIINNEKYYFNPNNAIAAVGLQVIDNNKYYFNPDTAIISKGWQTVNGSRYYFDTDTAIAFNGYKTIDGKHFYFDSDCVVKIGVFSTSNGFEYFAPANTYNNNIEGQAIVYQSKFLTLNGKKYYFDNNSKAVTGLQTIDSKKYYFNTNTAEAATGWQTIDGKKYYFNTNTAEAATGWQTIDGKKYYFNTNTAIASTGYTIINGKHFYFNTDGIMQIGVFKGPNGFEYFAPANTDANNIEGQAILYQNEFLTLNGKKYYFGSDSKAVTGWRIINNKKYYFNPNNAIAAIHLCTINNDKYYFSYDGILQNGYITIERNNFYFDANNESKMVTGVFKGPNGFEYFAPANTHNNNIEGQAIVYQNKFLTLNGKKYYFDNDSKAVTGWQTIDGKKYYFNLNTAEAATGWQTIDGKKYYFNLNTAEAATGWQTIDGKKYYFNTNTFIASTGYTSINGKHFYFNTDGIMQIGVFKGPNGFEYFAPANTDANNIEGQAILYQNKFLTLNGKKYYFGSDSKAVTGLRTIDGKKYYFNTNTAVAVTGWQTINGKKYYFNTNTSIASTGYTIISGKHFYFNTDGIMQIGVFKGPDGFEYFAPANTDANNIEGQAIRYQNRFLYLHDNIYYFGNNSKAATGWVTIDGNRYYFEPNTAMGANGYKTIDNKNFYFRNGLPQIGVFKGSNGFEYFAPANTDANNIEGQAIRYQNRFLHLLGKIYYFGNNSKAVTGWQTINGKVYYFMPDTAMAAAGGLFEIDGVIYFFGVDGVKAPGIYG
Assay Notes: cell-based or functional assay
Recorded Endpoint: EC50 TcdA [RLU], toxin neutralization assay (TNA) on IMR90 cells (RLU)
Enter your answer as a number in RLU; do not include the unit.

Tell me the measured EC50 TcdA [RLU], toxin neutralization assay (TNA) on IMR90 cells of hCDIFA-41 (antibody, V domains shown) VH: QVQLQESGPGLVKPSQTLSLTCTVSGDSISSNQYYWTWIRQPAGKGLEWIGQIESAYFTNYNPSLKGRVTISGDASKNVLSLTLTSVTAADTALYWCAREAGGGLGYCTGGRCQFSGYYYYGLDVWGQGTTVTVSS VL: QSALTQPPSVSAAPGQTVTISCSGSHSNIGNNYVSWYQQLPGTAPRRLIYDTDKRPSGIPDRFSGSKSGTSATLVITGLRAGDEADYYCGTWDGSLSAGVFGGGTKLTVLG , please.
673
